Measured target: Programmed cell death 1 ligand 1 (Homo sapiens) (UniProt Q9NZQ7)
Sequence (Q9NZQ7 whole entry, looked up): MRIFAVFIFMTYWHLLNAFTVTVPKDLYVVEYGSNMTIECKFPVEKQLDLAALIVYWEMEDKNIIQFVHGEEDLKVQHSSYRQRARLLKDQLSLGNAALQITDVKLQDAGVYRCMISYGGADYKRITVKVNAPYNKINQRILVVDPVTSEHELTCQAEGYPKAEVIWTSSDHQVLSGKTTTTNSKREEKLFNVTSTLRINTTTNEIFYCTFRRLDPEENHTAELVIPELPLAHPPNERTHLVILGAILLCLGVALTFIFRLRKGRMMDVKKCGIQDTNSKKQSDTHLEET
Test method notes: Inhibition of PD-1/PD-L1 (unknown origin) protein-protein interaction
Property name: IC50 (nM)

>>> val("COc1nc(-c2cccc(-c3ccccc3F)c2C)ccc1CNCCC(N)=O")
0.93

Data provenance: BindingDB's records for doi:10.1039/d3md00655g
